ASSAY NAME: Toxicity in po dosed CD-1 nude mouse xenografted with human EBC1 cells administered qd for 5 days on and 2 days off up to 32 days
Assay type: organism-based
MEASUREMENT SETUP: in vivo
QUANTITY MEASURED: MTD (mg/kg)

- CN1CCC(COc2cnc(-c3cccc(Cn4nc(-c5cccc(C#N)c5)ccc4=O)c3)nc2)CC1: 15

----------
Form field: pIC50 (one value per entry).
ASSAYED SYSTEM: Hepatocyte growth factor receptor (Homo sapiens, UniProt P08581)
Sequence (P08581 whole entry, the tested form may be a part): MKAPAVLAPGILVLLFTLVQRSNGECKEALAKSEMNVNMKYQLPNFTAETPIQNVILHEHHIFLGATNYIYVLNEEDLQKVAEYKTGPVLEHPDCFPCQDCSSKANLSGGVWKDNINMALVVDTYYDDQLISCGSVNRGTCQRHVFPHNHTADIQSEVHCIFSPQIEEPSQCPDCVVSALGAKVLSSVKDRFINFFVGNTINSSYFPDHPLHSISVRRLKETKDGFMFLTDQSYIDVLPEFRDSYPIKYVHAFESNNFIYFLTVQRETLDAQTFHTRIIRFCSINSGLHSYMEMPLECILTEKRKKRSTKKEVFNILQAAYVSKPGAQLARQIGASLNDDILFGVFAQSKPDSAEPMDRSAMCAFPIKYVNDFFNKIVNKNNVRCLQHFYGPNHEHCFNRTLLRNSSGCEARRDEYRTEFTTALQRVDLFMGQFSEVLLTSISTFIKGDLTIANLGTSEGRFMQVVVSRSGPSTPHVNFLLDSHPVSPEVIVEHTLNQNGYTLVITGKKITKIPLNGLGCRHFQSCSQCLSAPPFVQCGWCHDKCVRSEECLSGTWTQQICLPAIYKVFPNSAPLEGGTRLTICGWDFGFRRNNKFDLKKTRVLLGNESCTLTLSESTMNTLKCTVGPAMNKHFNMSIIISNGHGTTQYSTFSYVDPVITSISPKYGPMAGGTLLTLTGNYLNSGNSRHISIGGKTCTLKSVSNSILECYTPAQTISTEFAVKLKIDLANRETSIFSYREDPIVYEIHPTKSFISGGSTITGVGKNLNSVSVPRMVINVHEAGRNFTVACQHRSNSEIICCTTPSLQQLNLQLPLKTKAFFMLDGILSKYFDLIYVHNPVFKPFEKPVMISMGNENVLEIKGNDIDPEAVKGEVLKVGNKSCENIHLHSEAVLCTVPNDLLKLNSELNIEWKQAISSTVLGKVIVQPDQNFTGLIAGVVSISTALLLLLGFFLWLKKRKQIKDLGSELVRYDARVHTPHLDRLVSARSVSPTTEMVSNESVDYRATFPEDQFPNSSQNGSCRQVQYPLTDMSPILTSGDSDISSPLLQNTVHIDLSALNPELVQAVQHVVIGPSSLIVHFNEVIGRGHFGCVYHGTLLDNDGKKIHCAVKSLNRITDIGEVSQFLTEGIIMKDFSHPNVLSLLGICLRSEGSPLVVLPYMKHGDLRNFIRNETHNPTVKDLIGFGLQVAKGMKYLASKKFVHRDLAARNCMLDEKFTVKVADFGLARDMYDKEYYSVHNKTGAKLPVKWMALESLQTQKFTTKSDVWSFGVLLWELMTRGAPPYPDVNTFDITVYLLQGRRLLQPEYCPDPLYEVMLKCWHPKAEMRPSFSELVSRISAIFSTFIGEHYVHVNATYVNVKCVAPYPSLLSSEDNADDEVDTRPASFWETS
ASSAY NAME: Inhibition of GST-His6-tagged recombinant human c-Met kinase domain (956 to 1390) after 60 mins by anoff-chip mobility shift assay
pIC50: −log10 of the molar value.
QUANTITY MEASURED: pIC50

- Cc1cnc(-c2cccc(Cn3nc(-c4cc(F)cc(F)c4)ccc3=O)c2)[nH]1: 5.28
- Cc1nc(-c2cccc(Cn3nc(-c4cc(F)cc(F)c4)ccc3=O)c2)no1: 6.10
- N#Cc1cccc(-c2ccc(=O)n(Cc3cccc(-c4ncc(OCCN5CCOCC5)cn4)c3)n2)c1: 9.00
- CCN(CC)CCCOC(=O)Nc1cccc(CN2N=C(c3ccc(Cl)cc3)CSC2=O)c1: 7.05
- CN(C)CCCOC(=O)Nc1cccc(CN2N=C(c3cc(F)cc(F)c3)CSC2=O)c1: 7.64
- CN(C)CCCOc1cnc(-c2cccc(Cn3nc(-c4cccc(F)c4)ccc3=O)c2)nc1: 8.19
- CCN(CC)CCCOC(=O)Nc1cccc(CN2N=C(c3ccc(OC)c(OC)c3)CSC2=O)c1: 6.40
